All values here come from paper PMC8584349.

system: MERS-CoV PsV; test: microbe, parasite or virus in culture; conditions: Middle East respiratory syndrome-related coronavirus, read-out: IC50, tested in EK1/25-HC combination
measurement type: IC50 (nM)

molecule	display unit	recorded result
C[C@H](CCCC(C)(C)O)[C@H]1CC[C@H]2[C@@H]3CC=C4C[C@@H](O)CC[C@]4(C)[C@H]3CC[C@]12C [25-HC, 25-Hydroxycholesterol]	nM	1600
